MIC tested on Escherichia coli ATCC 25922: recorded values

1. CSCC[C@H](NC(=O)CN)C(=O)N[C@@H](C)C(=O)N[C@@H](CO)C(=O)N[C@@H](CCCCN)C(=O)N[C@@H](C)C(=O)NCC(=O)N[C@@H](CO)C(=O)N[C@H](C(=O)N[C@@H](CC(C)C)C(=O)NCC(=O)N[C@@H](CCCCN)C(=O)N[C@H](C(=O)N[C@@H](C)C(=O)N[C@@H](CCCCN)C(=O)N[C@H](C(=O)N[C@@H](C)C(=O)N[C@@H](CC(C)C)C(=O)N[C@@H](CCCCN)C(=O)N[C@@H](C)C(=O)N[C@@H](C)C(=O)N[C@@H](CC(C)C)C(N)=O)C(C)C)C(C)C)C(C)C : 25 µM

Next compound, please.
Report MIC, nothing else, for this compound: `CC[C@H](C)[C@H](NC(=O)[C@H](CC(N)=O)NC(=O)[C@H](Cc1ccccc1)NC(=O)[C@H](CC(C)C)NC(=O)CN)C(=O)N[C@H](C(=O)N[C@@H](CCCCN)C(=O)N[C@@H](CCCCN)C(=O)N[C@H](C(=O)N[C@H](C(=O)NCC(=O)N[C@@H](CCCCN)C(=O)N[C@@H](CC(C)C)C(=O)N[C@@H](CCCN=C(N)N)C(=O)O)[C@@H](C)CC)[C@@H](C)O)[C@@H](C)CC`
40 µM
